test: Compound toxicity, total ATP levels (ATPLite); assay type: cell-based; conditions: human, HepG2 cells; three days after compound addition; 50% reduction of total ATP vs no drug controls
// values below are reported CC50 at 3 days

{"columns": ["compound", "CC50 at 3 days"],
 "data": [
  ["O=C1N[C@@]2(CO1)CC1=C(c3ccn(C(F)F)n3)[C@H](c3ccc(Cl)c(F)c3)N=C(c3nccs3)N1C2 [Example 7]", "> 25 µM"],
  ["O=C1N[C@@]2(CO1)CC1=C(c3ccn(C(F)F)n3)[C@H](c3ccc(F)c(F)c3)N=C(c3nccs3)N1C2 [Example 15]", "> 25 µM"],
  ["O=C1N[C@@]2(CO1)CC1=C(c3cnn(C(F)F)n3)[C@H](c3ccc(F)cc3Cl)N=C(c3nccs3)N1C2 [Example 6]", "> 25 µM"],
  ["O=C1N[C@]2(CO1)CC1=C(c3ccn(C(F)F)n3)[C@H](c3ccc(Cl)c(F)c3)N=C(c3nccs3)N1C2 [Example 13]", "> 25 µM"]
]}

====

test system: HBV; assay: HepAD38 anti-HBV assay: reduction of viral product accumulation (virion DNA by qPCR, HBsAg or HBeAg by ELISA); type: cell-based; settings: Hepatitis B virus, 120 h; HepAD38 cells, harvest five days after compound addition; 50% reduction of viral product vs no drug controls; class symbols
pEC50: −log10 of the molar value.

{"columns": ["compound", "study target", "pEC50"],
 "data": [
  ["COC(=O)C1=C2C[C@@]3(COC(=O)N3)CN2C(c2nccs2)=N[C@H]1c1ccc(Cl)c(F)c1", "HBV", "> 7.00"],
  ["C=CCN1CC2(CC3=C(c4ccn(C(F)F)n4)[C@H](c4ccc(F)cc4Cl)N=C(c4nccs4)N3C2)OC1=O (stereo partly shown)", "HBV", "< 6.40"],
  ["O=C1N[C@]2(CO1)CC1=C(c3ccn(C(F)F)n3)[C@H](c3ccc(Cl)c(F)c3)N=C(c3nccs3)N1C2", "HBV", "> 7.00"],
  ["C=CCN1C[C@]2(CC3=C(c4ccn(C(F)F)n4)[C@H](c4ccc(F)cc4Cl)N=C(c4nccs4)N3C2)NC1=O", "HBV", "6.40 to 7.00"]
]}
